# System: Meth-A sarcoma
# procedure text: Anti-tumor effect on Balb/C mice inoculated with Meth-A Sarcoma
# Assay type: in vivo, female Balb/C mice
# measurement context: 10 mg/kg iv, Day 10; g ± standard error
Recorded Apperarent tumor weight, one value per entry.
Dear colleague, please return just the value in g, with no unit written.

// below: answered molecules
molecule	readout	assay result
CCCCCCCCCCOc1ccc(C(=O)N[C@H]2[C@@H](OC)O[C@H](CO)[C@@H](OS(=O)(=O)O)[C@@H]2OC(=O)c2ccc(OCCCCCCCCCC)c(OCCCCCCCCCC)c2)cc1OCCCCCCCCCC	Apperarent tumor weight	0.154
CCCCCCCCCCCCCC(=O)O[C@H]1[C@H](OS(=O)(=O)O)[C@@H](CO)OC(O)[C@@H]1NC(=O)c1ccc(OCCCCCCCCCC)c(OCCCCCCCCCC)c1 (stereo partly shown)	Apperarent tumor weight	0.361
CCCCCCCCCCC[C@@H](CC(=O)N[C@H]1C(O)O[C@H](CO)[C@@H](OS(=O)(=O)O)[C@@H]1OC(=O)CCCCCCCCc1ccccc1)OC(=O)CCCCCCCCc1ccccc1 (stereo partly shown)	Apperarent tumor weight	0.156

Please find the next molecule below.
query: For CCCCCCCCCCCCCC(=O)N[C@H]1C(O)O[C@H](CO)[C@@H](OS(=O)(=O)O)[C@@H]1OC(=O)c1ccc(OCCCCCCCCCC)c(OCCCCCCCCCC)c1 (stereo partly shown) , write its Apperarent tumor weight.
result: 0.206
